Test system: Aspergillus fumigatus
Protocol: checkerboard drug interaction (FICI, MICc);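 note: simplified diagonal checkerboard screen pairing antifungals with FPPS inhibitors against Aspergillus fumigatus, with FICI calculated under the Loewe additivity model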
Assay type: cell-based
Experimental Parameters: MIC of the inhibitor in combination with ketoconazole
Measure: INH MICc (KET:INH)

[[record]]
molecule_smiles = "CCCCCCCCCCCN1CCC[C@H]1C(=O)N[C@@H](CC(=O)OC)C(=O)OC"
measured_number = 64

[[record]]
molecule_smiles = "CCCCCCCCCCCN1CCC[C@H]1C(=O)N[C@H](CC(=O)OC)C(=O)OC"
measured_number = 128

[[record]]
molecule_smiles = "CCCCCCCCCCCCN1CCC[C@H]1C(=O)N[C@@H](CC(=O)OC)C(=O)OC"
measured_number = 64


----------
Below: a set of entries, each annotated with reported MIC / MEC.
Test system: Candida albicans
Protocol: MIC/MFC broth microdilution (CLSI)
Assay type: cell-based
Experimental Parameters: Candida albicans SC5314
Measure: MIC / MEC (µg/mL)

[[record]]
compound = "C[C@@H](c1ncncc1F)[C@](O)(Cn1cncn1)c1ccc(F)cc1F [VOR]"
experimental_system = "Candida albicans"
unit_spec = "µg/mL"
measured_number = 0.13

[[record]]
compound = "CC(=O)N1CCN(c2ccc(OCC3COC(Cn4ccnc4)(c4ccc(Cl)cc4Cl)O3)cc2)CC1 (stereo not drawn) [KET, ketoconazole]"
experimental_system = "Candida albicans"
unit_spec = "µg/mL"
measured_number = 0.06

[[record]]
compound = "CCC(C)n1ncn(-c2ccc(N3CCN(c4ccc(OCC5COC(Cn6cncn6)(c6ccc(Cl)cc6Cl)O5)cc4)CC3)cc2)c1=O (stereo not drawn) [ITR, itraconazole]"
experimental_system = "Candida albicans"
unit_spec = "µg/mL"
measured_number = 0.25


----------
Below: a set of entries, each annotated with reported antifungal MICc.
Tested on: Trichophyton tonsurans
Protocol: checkerboard drug interaction (FICI, MICc)
Format: cell-based
Experimental Parameters: in combination with 10-ZOL
Measure: antifungal MICc

[[record]]
molecule = "C[C@@H]1[C@H](O)[C@@H](C)/C=C/C=C/C=C/C=C/C=C/C=C/C=C/[C@H](O[C@@H]2O[C@H](C)[C@@H](O)[C@H](N)[C@@H]2O)C[C@@H]2O[C@](O)(C[C@@H](O)C[C@@H](O)[C@H](O)CC[C@@H](O)C[C@@H](O)CC(=O)O[C@H]1C)C[C@H](O)[C@H]2C(=O)O"
experimental_system = "Trichophyton tonsurans"
measured_number = 0.25

[[record]]
molecule = "CC(=O)N1CCN(c2ccc(OCC3COC(Cn4ccnc4)(c4ccc(Cl)cc4Cl)O3)cc2)CC1 (stereo not shown)"
experimental_system = "Trichophyton tonsurans"
measured_number = 0.25

[[record]]
molecule = "OC(Cn1cncn1)(Cn1cncn1)c1ccc(F)cc1F"
experimental_system = "Trichophyton tonsurans"
measured_number = 2

[[record]]
molecule = "CCC(C)n1ncn(-c2ccc(N3CCN(c4ccc(OCC5COC(Cn6cncn6)(c6ccc(Cl)cc6Cl)O5)cc4)CC3)cc2)c1=O (stereo not shown)"
experimental_system = "Trichophyton tonsurans"
measured_number = 0.25


----------
Below: a set of entries, each annotated with reported FLC FD (MIC-MICc fold decrease).
Test system: Cryptococcus deuterogattii
Protocol: checkerboard drug interaction (FICI, MICc);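 note: simplified diagonal checkerboard screen pairing antifungal drugs with FPPS inhibitors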
Assay type: cell-based
Experimental Parameters: C. deuterogattii; FLC:INH combination; fold decrease of FLC MIC
Measure: FLC FD (MIC-MICc fold decrease)

[[record]]
compound = "CCCCCCCCCN1CCC[C@H]1C(=O)N[C@@H](CC(=O)O)C(=O)O [PLA9]"
measured_number = -4

[[record]]
compound = "CCCCCCCCCN1CCC[C@H]1C(=O)N[C@H](CC(=O)O)C(=O)O [PDA9]"
measured_number = -4

[[record]]
compound = "CCCCCCCCCCN1CCC[C@H]1C(=O)N[C@H](CC(=O)OC)C(=O)OC [dmPDA10]"
measured_number = 4


Each recorded value in this set is attributed to paper PMC12892976.
